Origin of values: paper doi:10.1101/2022.03.02.482546

Biological target: soluble form of full-length LRP1 (low-density lipoprotein receptor-related protein 1) (human)
Assay: ELISA
attribute_measured: Kd (nM)

[[record]]
substance = "recombinant human ADAMTS1 (from UniProt Q9UHI8 50-967) (enzyme)"
unit_name = "nM"
number = 20.2

